- test system: P. falciparum apicoplast DNA polymerase (Pf-apPOL) (Plasmodium falciparum, UniProt Q8ILY1)
- Sequence (Q8ILY1 entry or part of it): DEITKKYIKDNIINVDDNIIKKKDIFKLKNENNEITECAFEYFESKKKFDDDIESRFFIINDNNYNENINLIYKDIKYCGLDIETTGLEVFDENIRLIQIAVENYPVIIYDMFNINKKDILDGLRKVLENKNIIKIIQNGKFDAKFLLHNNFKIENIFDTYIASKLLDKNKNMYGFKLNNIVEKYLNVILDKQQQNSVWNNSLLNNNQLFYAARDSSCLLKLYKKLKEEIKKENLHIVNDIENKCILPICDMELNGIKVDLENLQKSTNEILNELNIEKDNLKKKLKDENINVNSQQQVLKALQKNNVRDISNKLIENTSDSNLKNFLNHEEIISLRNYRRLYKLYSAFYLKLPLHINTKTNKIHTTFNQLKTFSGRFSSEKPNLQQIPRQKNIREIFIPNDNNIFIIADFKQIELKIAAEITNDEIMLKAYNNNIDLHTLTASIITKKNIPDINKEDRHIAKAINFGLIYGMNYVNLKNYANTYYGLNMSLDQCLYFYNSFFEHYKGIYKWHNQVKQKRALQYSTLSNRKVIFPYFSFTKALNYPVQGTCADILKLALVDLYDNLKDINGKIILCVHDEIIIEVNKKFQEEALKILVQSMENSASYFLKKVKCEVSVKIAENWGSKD
- assay overview: Fluorescence-based high-throughput DNA polymerase assay (molecular beacon), primary screen and dose-response
- Type: biochemical
- condition details: DRC-1; read at 90'; concentration 2.5
Listed next: entries and their corresponding % inhibition Apol 90' 2.5.
Numeric only. Scale: %

Past entries and their recorded results:
CC(=O)OCC1=C(C(=O)[O-])N2C(=O)[C@@H](NC(=O)Cc3cccs3)[C@H]2SC1.[Na+] :: -0.64
CC(C)CC(C(=O)O)N1C(=O)C2C3C=CC(C2C1=O)C1C(=O)N(C(CC(C)C)C(=O)O)C(=O)C31 (stereo not drawn) :: 5.482

Now consider a different compound.
[ask] Query % inhibition Apol 90' 2.5 for "Cc1cc2[nH]c(C(=O)Nc3ccc(F)cc3)c(CN3CCOCC3)c2s1"
[reply] -5.041

###

# % inhibition ApPOL 90' per record follows
- test system: P. falciparum apicoplast DNA polymerase (Pf-apPOL) (Plasmodium falciparum)
- assay overview: Fluorescence-based high-throughput DNA polymerase assay (molecular beacon), primary screen and dose-response
- Format: biochemical
- condition details: DRC-2; 90'; concentration 40
Give the quantity in %, number only.

Use these answered entries as a reference point.
O=c1cc(-c2ccccc2)oc2c(O)c(O)ccc12 :: 26
CCN1C(=O)C(=Cc2cccc(OC)c2O)SC1=S :: 35
N#Cc1c(C2CCCCC2)nc(Sc2ccc(C(F)(F)F)cc2[N+](=O)[O-])[nH]c1=O :: 77
O=C(Cn1ccc2c(=O)[nH]ccc21)Nc1cc(F)ccc1F [Molecule 42, O=C(Cn1ccc2c1cc[nH]c2=O)Nc1cc(F)ccc1F] :: 60
O=c1[nH]c2ccc(Br)cc2c(-c2ccccc2)c1C1=NNC(c2ccco2)C1 (stereo not shown) :: 83
CCCc1ccc(Oc2coc3cc(OC)ccc3c2=O)cc1 :: 25
COc1ccc(S(=O)(=O)/N=C2\NC(=O)/C(=C3\C(=O)Nc4ccc([N+](=O)[O-])cc43)S2)cc1 :: 75
N#CC(=NNc1cc(C(F)(F)F)cc(C(F)(F)F)c1)C(=O)c1ccco1 :: 71
O=C(Nc1c2c(nn1-c1ccc(Oc3ccccc3)cc1)CSC2)c1ccco1 :: 71
CC1(C)CC(=O)C2=C(C1)OC1=C(C(=O)CC(C)(C)C1)C2c1ccc(O)cc1 :: 57

[ask] Tell me % inhibition ApPOL 90' reported for "O=[N+]([O-])c1ccc(SCc2ccco2)c2cccnc12"
[reply] 75

[ask] Name the recorded % inhibition ApPOL 90' of the compound listed here: "Cc1nc(/N=N/c2ccc(C(=O)[O-])cc2)c(COP(=O)([O-])[O-])c(C=O)c1O.[Na+].[Na+].[Na+]"
[reply] 60

[ask] Give recorded % inhibition ApPOL 90'. "O=C(CSc1nnc(-c2ccncc2)[nH]1)c1ccc(O)c(O)c1"
[reply] 78

[ask] Supply recorded % inhibition ApPOL 90' for "COCC(=O)Nc1c(-c2cccc(F)c2)nc2cc(C)ccn12" here.
[reply] 73

[ask] Find the measured % inhibition ApPOL 90' of "Cc1ccc(C(=O)/C=C/C=C/C=C/N(C)C)o1" and report it.
[reply] 44

[ask] Give the measured % inhibition ApPOL 90' for "O=C1N/C(=N/c2ccccc2Cl)S/C1=C/c1ccc([N+](=O)[O-])o1"
[reply] 65
